Test: MAD study in healthy volunteers: whole blood and plasma PK
Format: in vivo, human
Settings: human; HV MAD Day 14, 75 mg QD maintenance; plasma; median
property: Tmax (h)
Note: unit h is implicit; provide only the numeric part.

In: So what does the record say about Tmax for `O=Cc1c(O)cccc1OC[C@@H]1COCCN1C(=O)c1cccnc1CCO` ?
Out: 1

====

Assay: MAD study in healthy volunteers: whole blood and plasma PK
Type: in vivo, human
Details: human; HV MAD Day 14, 75 mg QD maintenance (loading 500/500/500/400 mg); whole blood
property: Cmax (µg/mL)
Note: unit µg/mL is implicit; provide only the numeric part.

In: So what does the record say about Cmax for `O=Cc1c(O)cccc1OC[C@@H]1COCCN1C(=O)c1cccnc1CCO` ?
Out: 308

====

Test: MAD study in healthy volunteers: whole blood and plasma PK
Assay type: in vivo, human
Settings: human; HV MAD Day 14, 50 mg QD maintenance; plasma; read-out: Cmin
property: concentration at 14 day (ng/mL)
Note: unit ng/mL is implicit; provide only the numeric part.

In: So what does the record say about concentration at 14 day for O=Cc1c(O)cccc1OC[C@@H]1COCCN1C(=O)c1cccnc1CCO [Compound I] ?
Out: 1450

====

Experiment: MAD study in healthy volunteers: whole blood and plasma PK
Format: in vivo, human
Conditions: human; HV MAD Day 14, 15 mg QD maintenance (loading 200 mg x 3 days); whole blood
property: Cmax
Number plus unit, in that order.

In: So what does the record say about Cmax for `O=Cc1c(O)cccc1OC[C@@H]1COCCN1C(=O)c1cccnc1CCO` ?
Out: 130 µg/mL

====

Assay: SCD cohort PK after repeated dosing
Assay type: in vivo, human
Conditions: human, whole blood, 150 mg, MAD-3 (150 mg QD) week 6, SCD patient 0004; read-out: Whole Blood (Cmax) Concentration
property: Cmax
Number plus unit, in that order.

In: So what does the record say about Cmax for O=Cc1c(O)cccc1OC[C@@H]1COCCN1C(=O)c1cccnc1CCO [Compound I] ?
Out: 259 µg/mL

====

Test: MAD study in healthy volunteers: whole blood and plasma PK
Assay type: in vivo, human
Settings: human; HV MAD Day 14, 75 mg QD maintenance; whole blood; read-out: AUC0-24
property: AUC(0-t) (µg·h/mL)
Note: unit µg·h/mL is implicit; provide only the numeric part.

In: So what does the record say about AUC(0-t) for O=Cc1c(O)cccc1OC[C@@H]1COCCN1C(=O)c1cccnc1CCO [Compound I] ?
Out: 6760

====

Assay: SAD study in healthy volunteers: PK in plasma, whole blood, red blood cells
Type: in vivo, human
Details: human, red blood cells, po, 400 mg, HV single oral 400 mg (Cohort 5); red blood cells (calculated conc.); geometric mean; read-out: t1/2 (converted)
property: half-life (days)
Note: unit days is implicit; provide only the numeric part.

In: So what does the record say about half-life for `O=Cc1c(O)cccc1OC[C@@H]1COCCN1C(=O)c1cccnc1CCO` ?
Out: 25.2

====

Assay: SAD study in healthy volunteers: PK in plasma, whole blood, red blood cells
Type: in vivo, human
Settings: human; HV single oral 200 mg (Cohort 3); red blood cells (calculated conc.); median
property: Tmax

In: So what does the record say about Tmax for `O=Cc1c(O)cccc1OC[C@@H]1COCCN1C(=O)c1cccnc1CCO` ?
Out: 8 h

====

Experiment: SAD study in healthy volunteers: PK in plasma, whole blood, red blood cells
Format: in vivo, human
Conditions: human, plasma, 100 mg, healthy volunteers n=6, single 100 mg; plasma; geometric mean; read-out: t½ (converted)
property: half-life (days)
Note: unit days is implicit; provide only the numeric part.

In: So what does the record say about half-life for `O=Cc1c(O)cccc1OC[C@@H]1COCCN1C(=O)c1cccnc1CCO` ?
Out: 25.6

====

Assay: SAD study in healthy volunteers: PK in plasma, whole blood, red blood cells
Type: in vivo, human
Settings: human, plasma, po, 100 mg, HV single oral 100 mg (Cohort 2); plasma; geometric mean; read-out: t1/2 (converted)
property: half-life

In: So what does the record say about half-life for `O=Cc1c(O)cccc1OC[C@@H]1COCCN1C(=O)c1cccnc1CCO` ?
Out: 25.6 days

====

Test: SAD study in healthy volunteers: PK in plasma, whole blood, red blood cells
Type: in vivo, human
Conditions: human; HV single oral 200 mg (Cohort 3); plasma; geometric mean
Method: To evaluate the safety and tolerability of single ascending doses of Compound I, 48 healthy volunteers (42 in the fasted state and 6 in the fed state) aged 18 to 55 years old were administered single ascending doses (50 mg to 2200 mg) of Compound I, while 16 healthy volunteers (14 in the fasted state and 2 in the fed state) aged 18 to 55 years old were administered placebo in a double blind, randomized, sequential manner. […]
property: AUC(0-inf)

In: So what does the record say about AUC(0-inf) for O=Cc1c(O)cccc1OC[C@@H]1COCCN1C(=O)c1cccnc1CCO [Compound I] ?
Out: 152 µg·h/mL

====

Experiment: SAD study in healthy volunteers: PK in plasma, whole blood, red blood cells
Format: in vivo, human
Settings: human, whole blood, po, 200 mg, HV single oral 200 mg (Cohort 3); whole blood; geometric mean; read-out: AUClast
property: AUC(0-t) (µg·h/mL)
Note: unit µg·h/mL is implicit; provide only the numeric part.

In: So what does the record say about AUC(0-t) for O=Cc1c(O)cccc1OC[C@@H]1COCCN1C(=O)c1cccnc1CCO [Compound I] ?
Out: 28600

====

Assay: MAD study in healthy volunteers: whole blood and plasma PK
Assay type: in vivo, human
Settings: human; HV MAD Day 14, 25 mg QD maintenance; plasma; read-out: Cmin
property: concentration at 14 day (ng/mL)
Note: unit ng/mL is implicit; provide only the numeric part.

In: So what does the record say about concentration at 14 day for `O=Cc1c(O)cccc1OC[C@@H]1COCCN1C(=O)c1cccnc1CCO` ?
Out: 660

====

Test: SAD study in healthy volunteers: PK in plasma, whole blood, red blood cells
Assay type: in vivo, human
Conditions: human, whole blood, po, 2200 mg, HV single oral 2200 mg (Cohort 8); geometric mean
property: Cmax
Number plus unit, in that order.

In: So what does the record say about Cmax for `O=Cc1c(O)cccc1OC[C@@H]1COCCN1C(=O)c1cccnc1CCO` ?
Out: 387 µg/mL

====

Experiment: MAD study in healthy volunteers: whole blood and plasma PK
Type: in vivo, human
Conditions: human; HV MAD Day 14, 25 mg QD maintenance; plasma
property: Cmax (ng/mL)
Note: unit ng/mL is implicit; provide only the numeric part.

In: So what does the record say about Cmax for O=Cc1c(O)cccc1OC[C@@H]1COCCN1C(=O)c1cccnc1CCO [Compound I] ?
Out: 900

====

Assay: SAD study in healthy volunteers: PK in plasma, whole blood, red blood cells
Assay type: in vivo, human
Conditions: human; HV single oral 400 mg (Cohort 5); red blood cells (calculated conc.); median
property: Tmax (h)
Note: unit h is implicit; provide only the numeric part.

In: So what does the record say about Tmax for O=Cc1c(O)cccc1OC[C@@H]1COCCN1C(=O)c1cccnc1CCO [Compound I] ?
Out: 10

====

Assay: SAD study in healthy volunteers: PK in plasma, whole blood, red blood cells
Assay type: in vivo, human
Conditions: human, red blood cells, po, 800 mg, HV single oral 800 mg (Cohort 6); red blood cells (calculated conc.); geometric mean
property: Cmax (µg/mL)
Note: unit µg/mL is implicit; provide only the numeric part.

In: So what does the record say about Cmax for `O=Cc1c(O)cccc1OC[C@@H]1COCCN1C(=O)c1cccnc1CCO` ?
Out: 351

====

Experiment: Single 100 mg dose PK in SCD subjects
Format: in vivo, human
Settings: human, whole blood, 100 mg, SCD single 100 mg; mean
property: AUC(0-t) (µg·h/mL)
Note: unit µg·h/mL is implicit; provide only the numeric part.

In: So what does the record say about AUC(0-t) for `O=Cc1c(O)cccc1OC[C@@H]1COCCN1C(=O)c1cccnc1CCO` ?
Out: 4690

====

Experiment: SAD study in healthy volunteers: PK in plasma, whole blood, red blood cells
Assay type: in vivo, human
Conditions: human, plasma, po, 200 mg, HV single oral 200 mg (Cohort 3); plasma; geometric mean; read-out: AUClast
property: AUC(0-t) (µg·h/mL)
Note: unit µg·h/mL is implicit; provide only the numeric part.

In: So what does the record say about AUC(0-t) for `O=Cc1c(O)cccc1OC[C@@H]1COCCN1C(=O)c1cccnc1CCO` ?
Out: 135

====

Experiment: SAD study in healthy volunteers: PK in plasma, whole blood, red blood cells
Format: in vivo, human
Conditions: human; HV single 200 mg; whole blood; median
Procedure: To evaluate the safety and tolerability of single ascending doses of Compound I, 48 healthy volunteers (42 in the fasted state and 6 in the fed state) aged 18 to 55 years old were administered single ascending doses (50 mg to 2200 mg) of Compound I, while 16 healthy volunteers (14 in the fasted state and 2 in the fed state) aged 18 to 55 years old were administered placebo in a double blind, randomized, sequential manner. […]
property: Tmax (h)
Note: unit h is implicit; provide only the numeric part.

In: So what does the record say about Tmax for O=Cc1c(O)cccc1OC[C@@H]1COCCN1C(=O)c1cccnc1CCO [Compound I] ?
Out: 8
